// data source = the supplement of paper PMC4862054

- Tested on: HDQ-P1
- experiment: normalised viability (% of control), CellTiter-Blue; higher = more viable cells (about 100 = DMSO control)
- reported-conditions: incubation time: 72 h
// normalised viability lookup, one value per entry
Give just the numeric value; % need not be written.

Some compounds with known normalised viability results, for comparison:
INSERT INTO assay_data (compound, quantitative_result) VALUES
  ('COc1cccc2cc(-c3nc([C@H]4CC[C@H](C(=O)O)CC4)n4ncnc(N)c34)[nH]c12 [OSI-027] (10000 nM)', 20.2),
  ('N#CC[C@H](C1CCCC1)n1cc(-c2ncnc3[nH]ccc23)cn1 [Ruxolitinib] (10000 nM)', 107),
  ('C[C@]1(c2nc3c(C(N)=O)cccc3[nH]2)CCCN1 [Veliparib] (10000 nM)', 93.2);

**Q:** Recorded normalised viability for Nc1nc(Cl)nc2c1ncn2[C@H]1C[C@H](O)[C@@H](CO)O1 [Cladribine] (1000 nM) , please?
**A:** 104

**Q:** Recorded normalised viability for CS(=O)(=O)c1ccc(C(=O)Nc2ccc(Cl)c(-c3ccccn3)c2)c(Cl)c1 [Vismodegib] (10000 nM) , please?
**A:** 89.3

**Q:** Recorded normalised viability for COc1cccc2c1C(=O)c1c(O)c3c(c(O)c1C2=O)C[C@@](O)(C(=O)CO)C[C@@H]3O[C@H]1C[C@H](N)[C@H](O)[C@H](C)O1 [Doxorubicin] (1000 nM) , please?
**A:** 13.7

**Q:** Recorded normalised viability for CN1CCC(COc2cnc(-c3cccc(Cn4nc(-c5cccc(C#N)c5)ccc4=O)c3)nc2)CC1 (10000 nM) , please?
**A:** 4.94

**Q:** Recorded normalised viability for Cc1c2oc3c(C)ccc(C(=O)N[C@@H]4C(=O)N[C@H](C(C)C)C(=O)N5CCC[C@H]5C(=O)N(C)CC(=O)N(C)[C@@H](C(C)C)C(=O)O[C@@H]4C)c3nc-2c(C(=O)N[C@@H]2C(=O)N[C@H](C(C)C)C(=O)N3CCC[C@H]3C(=O)N(C)CC(=O)N(C)[C@@H](C(C)C)C(=O)O[C@@H]2C)c(N)c1=O [Dactinomycin] (1000 nM) , please?
**A:** 16.8

###

- System: MDA-MB-453
- experiment: normalised viability (% of control), CellTiter-Blue; higher = more viable cells (about 100 = DMSO control)
- reported-conditions: 3 nM; incubation time: 72 h
// normalised viability lookup, one value per entry
Give just the numeric value; % need not be written.

INSERT INTO measurements (record_smiles, test_system, quantity_measured, value_units, quantitative_result) VALUES
  ('CO[C@H]1C[C@@H]2CC[C@@H](C)[C@@](O)(O2)C(=O)C(=O)N2CCCC[C@H]2C(=O)O[C@H]([C@H](C)C[C@@H]2CC[C@@H](OC(=O)C(C)(CO)CO)[C@H](OC)C2)CC(=O)[C@H](C)/C=C(\C)[C@@H](O)[C@@H](OC)C(=O)[C@H](C)C[C@H](C)/C=C/C=C/C=C/1C', 'MDA-MB-453', 'normalised viability', '%', 26.1);

Query molecule follows.
**Q:** Recorded normalised viability for CC[C@]1(O)C[C@@H]2CN(CCc3c([nH]c4ccccc34)[C@@](C(=O)OC)(c3cc4c(cc3OC)N(C)[C@H]3[C@@](O)(C(=O)OC)[C@H](OC(C)=O)[C@]5(CC)C=CCN6CC[C@]43[C@@H]65)C2)C1 , please?
**A:** 99.8

###

- Test system: HDQ-P1
- experiment: normalised viability (% of control), CellTiter-Blue; higher = more viable cells (100 = DMSO, 0 = benzethonium chloride kill control)
- reported-conditions: incubation time: 72 h
quantity-measured: normalised viability (%)
Give just the numeric value; % need not be written.

INSERT INTO measurements (compound, quantity_measured, quantitative_result) VALUES
  ('Clc1ccc(C(c2ccccc2Cl)C(Cl)Cl)cc1 (centres undefined) [Mitotane] (1 nM)', 'normalised viability', 112),
  ('OC[C@H]1O[C@@H](n2cnc3c2N=CNC[C@H]3O)C[C@@H]1O [Pentostatin] (1 nM)', 'normalised viability', 108),
  ('CN1CC[C@H](c2c(O)cc(O)c3c(=O)cc(-c4ccccc4Cl)oc23)[C@H](O)C1 [Alvocidib] (1 nM)', 'normalised viability', 79.7);

Query compound follows.
**Q:** Find the measured normalised viability: item C[C@]1(c2nc3c(C(N)=O)cccc3[nH]2)CCCN1 [Veliparib] (1 nM) , target or system HDQ-P1.
**A:** 75.1

###

- System: BT-549
- experiment: drug sensitivity score (DSS), CellTiter-Blue viability (DSS (AUC-based score)); higher = stronger viability inhibition; extreme values may be limits of the assay
- reported-conditions: incubation time: 72 h
quantity-measured: drug sensitivity score

INSERT INTO assay_data (compound, result) VALUES
  ('Cc1c2oc3c(C)ccc(C(=O)N[C@@H]4C(=O)N[C@H](C(C)C)C(=O)N5CCC[C@H]5C(=O)N(C)CC(=O)N(C)[C@@H](C(C)C)C(=O)O[C@@H]4C)c3nc-2c(C(=O)N[C@@H]2C(=O)N[C@H](C(C)C)C(=O)N3CCC[C@H]3C(=O)N(C)CC(=O)N(C)[C@@H](C(C)C)C(=O)O[C@@H]2C)c(N)c1=O [Dactinomycin]', 32.8);

**Q:** Find the measured drug sensitivity score: item Clc1ccc(C(c2ccccc2Cl)C(Cl)Cl)cc1 (stereo not drawn) [Mitotane] , target or system BT-549.
**A:** 0

**Q:** Find the measured drug sensitivity score: item CN1CCC(COc2cnc(-c3cccc(Cn4nc(-c5cccc(C#N)c5)ccc4=O)c3)nc2)CC1 , target or system BT-549.
**A:** 6.21

**Q:** Find the measured drug sensitivity score: item CS(=O)(=O)c1ccc(C(=O)Nc2ccc(Cl)c(-c3ccccn3)c2)c(Cl)c1 [Vismodegib] , target or system BT-549.
**A:** 0

**Q:** Find the measured drug sensitivity score: item OC[C@H]1O[C@@H](n2cnc3c2N=CNC[C@H]3O)C[C@@H]1O [Pentostatin] , target or system BT-549.
**A:** 0

**Q:** Find the measured drug sensitivity score: item Nc1ccn([C@@H]2O[C@H](CO)[C@@H](O)[C@@H]2O)c(=O)n1 [Cytarabine] , target or system BT-549.
**A:** 7.65

**Q:** Find the measured drug sensitivity score: item C=CCNC1=C2C[C@@H](C)C[C@H](OC)[C@H](O)[C@@H](C)/C=C(\C)[C@H](OC(N)=O)[C@@H](OC)/C=C\C=C(/C)C(=O)NC(=CC1=O)C2=O [Tanespimycin] , target or system BT-549.
**A:** 24.3

**Q:** Find the measured drug sensitivity score: item CN(C)C/C=C/C(=O)Nc1cc2c(Nc3ccc(F)c(Cl)c3)ncnc2cc1O[C@H]1CCOC1 [Afatinib] , target or system BT-549.
**A:** 5.88

###

- Tested on: CAL-51
- experiment: normalised viability (% of control), CellTiter-Blue; higher = more viable cells (about 100 = DMSO control)
- reported-conditions: incubation time: 72 h
// normalised viability lookup, one value per entry
Give just the numeric value; % need not be written.

Some molecules with known normalised viability results, for comparison:
INSERT INTO results (molecule, quantity_measured, quantitative_result) VALUES
  ('COc1cc(Nc2ncc3c(n2)-c2ccc(Cl)cc2C(c2c(F)cccc2OC)=NC3)ccc1C(=O)O [MLN8237] (300 nM)', 'normalised viability', 35.9),
  ('CO[C@H]1C[C@@H]2CC[C@@H](C)[C@@](O)(O2)C(=O)C(=O)N2CCCC[C@H]2C(=O)O[C@H]([C@H](C)C[C@@H]2CC[C@@H](OC(=O)C(C)(CO)CO)[C@H](OC)C2)CC(=O)[C@H](C)/C=C(\C)[C@@H](O)[C@@H](OC)C(=O)[C@H](C)C[C@H](C)/C=C/C=C/C=C/1C [Temsirolimus] (30 nM)', 'normalised viability', 41.8),
  ('CC[C@]1(O)C[C@@H]2CN(CCc3c([nH]c4ccccc34)[C@@](C(=O)OC)(c3cc4c(cc3OC)N(C)[C@H]3[C@@](O)(C(=O)OC)[C@H](OC(C)=O)[C@]5(CC)C=CCN6CC[C@]43[C@@H]65)C2)C1 [Vinblastine] (30 nM)', 'normalised viability', 49.7);

**Q:** Recorded normalised viability for C=CCNC1=C2C[C@@H](C)C[C@H](OC)[C@H](O)[C@@H](C)/C=C(\C)[C@H](OC(N)=O)[C@@H](OC)/C=C\C=C(/C)C(=O)NC(=CC1=O)C2=O [Tanespimycin] (300 nM) , please?
**A:** 48.2

**Q:** Recorded normalised viability for C=CC[C@@H]1/C=C(\C)C[C@H](C)C[C@H](OC)[C@H]2O[C@@](O)(C(=O)C(=O)N3CCCC[C@H]3C(=O)O[C@H](/C(C)=C/[C@@H]3CC[C@@H](O)[C@H](OC)C3)[C@H](C)[C@@H](O)CC1=O)[C@H](C)C[C@@H]2OC [Tacrolimus] (300 nM) , please?
**A:** 103
